Protocol notes: Stability in human plasma assessed as half life
Type: ADME, cell-free
Recorded metric: half-life

q: Looking for the measured half-life of Cc1ccc(Cl)cc1N1CCN(C(=O)C23CC4CC(CC(C4)C2)C3)CC1 , can you help?
a: > 8.33 h

----------
Test target: Peroxisome proliferator-activated receptor delta (Homo sapiens, UniProt Q03181)
Sequence (Q03181 whole entry): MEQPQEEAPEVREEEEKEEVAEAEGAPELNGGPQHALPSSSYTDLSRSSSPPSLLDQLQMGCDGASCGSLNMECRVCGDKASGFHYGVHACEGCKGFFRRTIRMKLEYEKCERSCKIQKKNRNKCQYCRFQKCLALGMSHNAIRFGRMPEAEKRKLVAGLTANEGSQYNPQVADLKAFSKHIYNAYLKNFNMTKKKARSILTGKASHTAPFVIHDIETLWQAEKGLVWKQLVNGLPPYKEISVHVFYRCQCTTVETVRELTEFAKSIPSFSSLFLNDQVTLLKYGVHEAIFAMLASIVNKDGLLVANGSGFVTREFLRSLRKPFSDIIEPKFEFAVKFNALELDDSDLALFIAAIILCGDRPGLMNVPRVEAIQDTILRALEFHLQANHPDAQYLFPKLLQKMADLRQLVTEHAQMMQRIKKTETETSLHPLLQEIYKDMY
Protocol notes: Agonist activity at human PPARdelta expressed in HEK293T cells incubated for 12 to 14 hrs by Dual-Glo luciferase assay
Recorded metric: pEC50
Reminder that pEC50 means the negative base-10 logarithm of the concentration expressed in mol/L.

q: Looking for the measured pEC50 of CC(C)c1onc(-c2c(Cl)cccc2Cl)c1COc1ccc(CNc2ccc(CC(=O)O)cc2)c(Cl)c1 , can you help?
a: 5.82

Hello, the source for this data is ChEMBL document CHEMBL5233278, in case you need it.
